Experiment: Cell viability assay
Format: cell-based, human
Details: human, human blood mononuclear cells (MNCs), pH 7.4
MEASURED ENDPOINT: viability at 2 h, 0.25 mM

{"columns": ["COMPOUND", "MEASURED ENDPOINT", "MEASURED RESULT"],
 "data": [
  ["COc1cc(/C=C/C(=O)CC(=O)/C=C/c2ccc(O)c(OC)c2)ccc1O [Curcumin, reference compound]", "viability at 2 h, 0.25 mM", "71.8%"]
]}

Consider the record given below.
May I ask what viability at 2 h, 0.25 mM has been recorded for O=P1(N(CCCl)CCCl)NCCCO1 (centres unmarked) [Cyclophosphamide, reference compound] ?
58.5%
